- TARGET_UNDER_TEST: T1, recombinant human HER2 extracellular domain protein (human, UniProt P04626 23-652)
- T1 construct: range 23-652; Range is printed for the immunogen/panning protein; also called ErbB2; recombinant HER2 protein
- PROTOCOL_NOTES: BLI, Protein A capture
RECORDED_METRIC: koff (s⁻¹)
State the answer as a number, implicitly in s⁻¹.

{"BINDER": "2126-Hu-L15 (antibody, IgG1, V domains shown, IgG1/Cκ) VH: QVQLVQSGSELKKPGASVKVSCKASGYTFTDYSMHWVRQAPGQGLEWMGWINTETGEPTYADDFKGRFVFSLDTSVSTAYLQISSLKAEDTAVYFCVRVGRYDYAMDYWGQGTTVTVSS VL: DIQMTQSPSSLSASVGDRVTITCKASQDVYTAVAWYQQKPGKAPKLLINSASYRETGVPSRFSGSGSGTDFTLTISSLQPEDFATYYCQQHYSTPPTFGGGTKVEIK", "VALUE_UNIT": "s⁻¹", "koff": 0.000906}
{"BINDER": "2126-Hu-L19 (antibody, IgG1, V domains shown, IgG1/Cκ) VH: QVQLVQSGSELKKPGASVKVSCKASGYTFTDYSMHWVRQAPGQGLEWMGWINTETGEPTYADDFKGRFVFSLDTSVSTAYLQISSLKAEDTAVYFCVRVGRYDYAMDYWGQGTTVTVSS VL: DIQMTQSPSSLSASVGDRVTITCKASQDVYTAVAWYQQKPGKAPKLLINSASYRYTGVPSRFSGSGSGTDFTLTISSLQPEDFATYYCQQAYSTPPTFGGGTKVEIK", "VALUE_UNIT": "s⁻¹", "koff": 0.00085}
{"BINDER": "2126-Hu-H58 (antibody, IgG1, name in Kabat numbering, V domains shown, IgG1/Cκ) VH: QVQLVQSGSELKKPGASVKVSCKASGYTFTDYSMHWVRQAPGQGLEWMGWINTETGEPTYADDFKGRFVFSLDTSVSTAYLQISSLKAEDTAVYFCVRVGRYQYAMDYWGQGTTVTVSS VL: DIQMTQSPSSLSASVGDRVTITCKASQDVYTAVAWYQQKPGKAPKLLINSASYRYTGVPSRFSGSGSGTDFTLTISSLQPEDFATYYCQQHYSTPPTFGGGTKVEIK", "VALUE_UNIT": "s⁻¹", "koff": 0.00409}

Turning now to a further binder:
Reported koff for 2126-Hu-H45 (antibody, IgG1, V domains shown, IgG1/Cκ) VH: QVQLVQSGSELKKPGASVKVSCKASGYTFTDYSMHWVRQAPGQGLEWMGWINTETGEPTYADDFKGRFVFSLDTSVSTAYLQMSSLKAEDTAVYFCVRVGRYDYAMDYWGQGTTVTVSS VL: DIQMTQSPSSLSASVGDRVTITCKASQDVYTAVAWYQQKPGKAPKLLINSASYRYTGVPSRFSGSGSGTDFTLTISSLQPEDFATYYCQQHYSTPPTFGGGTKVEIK was 0.000598
